B1: HDV Ribozyme (parent)
chain: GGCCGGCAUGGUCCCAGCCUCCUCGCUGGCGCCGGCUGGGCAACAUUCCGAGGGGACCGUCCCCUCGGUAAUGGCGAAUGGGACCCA

Variants of: B1
Protocol summary: self-cleavage, relative activity (ratio to wild type); higher = more cleavage; co-transcriptional
Note to self: values exactly at 0.3 are True. So self-cleavage at or above 0.3 is True, below is False.

Example entries begin here.
Variant label	Class name
A71U G74U	True
G35C C36G	False
G35A C86U	True

Q: Item C4G G59U with self-cleavage of 0.3 or above?
Result: True

Q: For this variant, is measured self-cleavage 0.3 or higher? C30U A42C
Result: False

Q: Tell me whether self-cleavage is at least 0.3 here: G38C G50U
Result: False

Q: Could you please find out whether G2A C13A has self-cleavage that meets 0.3 or exceeds it?
Result: False

Q: Kindly determine if self-cleavage recorded for G11U G38A is above or exactly 0.3.
Result: False

Q: Please check the record C7A C64U and state if its self-cleavage is at or above 0.3.
Result: True
